These compounds were tested on CcrA (Metallo) (Bacteroides fragilis, UniProt P25910); IC50 is the recorded read-out.
Sequence (P25910 19-249): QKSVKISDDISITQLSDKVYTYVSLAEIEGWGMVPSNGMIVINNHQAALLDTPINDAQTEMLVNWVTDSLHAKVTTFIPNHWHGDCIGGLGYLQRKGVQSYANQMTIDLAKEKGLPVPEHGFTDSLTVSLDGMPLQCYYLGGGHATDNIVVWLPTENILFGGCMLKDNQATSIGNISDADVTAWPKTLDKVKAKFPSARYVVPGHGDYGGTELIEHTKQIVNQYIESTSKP
Reply numerically in µM, unit not repeated.

Q: Looking for the measured IC50 of CC(=O)OC(C1CC(c2ccc(C)cc2)=NO1)[C@@H]1C(=O)N2[C@@H](C(=O)O)C(C)(C)S(=O)(=O)[C@H]12 (some centres unmarked) , can you help?
Ans: 16

Q: I would be grateful if you could share the reported IC50 for Cc1ccc(C2=NOC(C[C@@H]3C(=O)N4[C@@H](C(=O)O)C(C)(C)S(=O)(=O)[C@H]34)C2)cc1 (some centres unmarked) .
Ans: 0.65

---

- Target Entity: β-lactamase Tal 3636 CcrA (Bacteroides fragilis, UniProt P25910)
- Sequence (P25910 19-249): as above
- Assay Method Text: biochemical
- Format: biochemical
- Condition Label: CI: enzyme added last; 0.010M HEPES, pH 7.4; nitrocefin 100 μg/ml; read-out: IC50 CI HEPES
Attribute Measured: pIC50
Lab note: report pIC50 as minus log10 of the concentration in molar units, number only.

CC1(C)[C@H](C(=O)O)N2C(=O)[C@@H](CC3CC(Br)=NO3)[C@H]2S1(=O)=O (single isomer, unassigned) [Example 16]
4.74

Next:
Q: Value lookup for pIC50; key = Cc1ccc(C2=NOC(C[C@@H]3C(=O)N4[C@@H](C(=O)O)C(C)(C)S(=O)(=O)[C@H]34)C2)cc1 (stereo partly drawn) [Example 4]
Ans: 5.01

---

pIC50 for assorted compounds
- Target Entity: β-lactamase Tal 3636 CcrA (Bacteroides fragilis)
- Assay Method Text: biochemical
- Type: biochemical
- Condition Label: CI: enzyme added last; 0.05M phosphate buffer, pH 7.0; nitrocefin 100 μg/ml; read-out: IC50 CI PHOSPHATE
Entry type: numeric. Quantity: pIC50, the -log10 of concentration in molar units.

CC1(C)[C@H](C(=O)O)N2C(=O)[C@@H](CC3CC(c4ccsc4)=NO3)[C@H]2S1(=O)=O (single isomer, unassigned)
4.48
CC(=O)OC(C1CC(c2ccc(C)cc2)=NO1)[C@@H]1C(=O)N2[C@@H](C(=O)O)C(C)(C)S(=O)(=O)[C@H]12 (stereo partly drawn)
3.68
CC1(C)[C@H](C(=O)O)N2C(=O)[C@@H](CC3CC(Br)=NO3)[C@H]2S1(=O)=O (single isomer, unassigned)
4.32
Cc1ccc(C2=NOC(C[C@@H]3C(=O)N4[C@@H](C(=O)O)C(C)(C)S(=O)(=O)[C@H]34)C2)cc1 (stereo partly drawn) [Example 4]
4.80

Consider the record given below.
Q: Request - read-out pIC50 | tested on β-lactamase Tal 3636 CcrA (Bacteroides fragilis) | compound Cc1ccc(C2=NOC(C[C@@H]3C(=O)N4[C@@H](C(=O)O)C(C)(C)S(=O)(=O)[C@H]34)C2)cc1 (stereo partly drawn) [Example 5]
Ans: 4.17

---

- Target Entity: β-lactamase Tal 3636 CcrA (Bacteroides fragilis, UniProt P25910)
- Assay Method Text: biochemical
- Format: biochemical
- Condition Label: CI: enzyme added last; 0.010M HEPES, pH 7.4; nitrocefin 100 μg/ml; read-out: IC50 CI HEPES
// reported pIC50 per item
Notebook: values listed as pIC50 are -log10 of the concentration (mol/L).

CC(=O)OC(C1CC(c2ccc(C)cc2)=NO1)[C@@H]1C(=O)N2[C@@H](C(=O)O)C(C)(C)S(=O)(=O)[C@H]12 (stereo partly drawn)
4.00
CC1(C)[C@H](C(=O)O)N2C(=O)[C@@H](CC3CC(c4ccsc4)=NO3)[C@H]2S1(=O)=O (single isomer, unassigned)
4.32

Q: Give the measured pIC50 of Cc1ccc(C2=NOC(C[C@@H]3C(=O)N4[C@@H](C(=O)O)C(C)(C)S(=O)(=O)[C@H]34)C2)cc1 (stereo partly drawn) [Example 5] .
Ans: 4.57

---

Listing: IC50 of selected molecules
- Target Entity: PC1 (Penase) (Staphylococcus aureus, UniProt P00807)
- Sequence (P00807 25-281): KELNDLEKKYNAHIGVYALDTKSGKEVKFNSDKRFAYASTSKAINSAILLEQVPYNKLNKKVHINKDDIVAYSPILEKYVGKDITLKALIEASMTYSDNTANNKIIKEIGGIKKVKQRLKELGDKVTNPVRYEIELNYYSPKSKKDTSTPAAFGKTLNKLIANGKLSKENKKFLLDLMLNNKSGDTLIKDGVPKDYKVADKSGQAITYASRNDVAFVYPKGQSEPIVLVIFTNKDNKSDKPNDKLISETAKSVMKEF
- Assay Method Text: Spectrophotometric inhibition with 10 minute preincubation, nitrocefin substrate
- Format: biochemical
// note: answer is a bare numeric in nM

C[C@]1(Cn2ccnn2)[C@H](C(=O)O)N2C(=O)C[C@H]2S1(=O)=O [Tazobactam, tazobactam, reference compound]
32

Q: Which value of IC50 has been reported for CC1(C)[C@H](C(=O)O)N2C(=O)C[C@H]2S1(=O)=O [Sulbactam, sulbactam, reference compound] in the records?
Ans: 80

---

- Target Entity: PC1 (Penase) (Staphylococcus aureus, UniProt P00807)
- Assay Method Text: Spectrophotometric inhibition with 10 minute preincubation, nitrocefin substrate
- Type: biochemical
- Condition Label: 10 minute preincubation, 25° C.; read-out: IC50 PC1 (Penase)
Attribute Measured: pIC50
When answering, recall that pIC50 equals minus log10 of the concentration in mol/L, and write that number alone.

Cc1ccc(C2=NOC(C[C@@H]3C(=O)N4[C@@H](C(=O)O)C(C)(C)S(=O)(=O)[C@H]34)C2)cc1 (some centres unmarked)
6.14

Now for a further compound.
Q: Any idea what pIC50 was measured for CC(=O)OC(C1CC(c2ccc(C)cc2)=NO1)[C@@H]1C(=O)N2[C@@H](C(=O)O)C(C)(C)S(=O)(=O)[C@H]12 (some centres unmarked) ?
Ans: 5.10

---

# IC50 per entry
- Target Entity: β-lactamase Tal 3636 CcrA (Bacteroides fragilis)
- Assay Method Text: biochemical
- Assay type: biochemical
- Condition Label: TDI: approximately 7 minutes incubation, nitrocefin added last; 0.05M phosphate buffer, pH 7.0; 7 min; read-out: IC50 TDI PHOSPHATE
Answer with a number only, understood to be in µM.

Cc1ccc(C2=NOC(C[C@@H]3C(=O)N4[C@@H](C(=O)O)C(C)(C)S(=O)(=O)[C@H]34)C2)cc1 (some centres unmarked) [Example 4]
2

Field: next molecule
Q: For the molecule shown here, Cc1ccc(C2=NOC(C[C@@H]3C(=O)N4[C@@H](C(=O)O)C(C)(C)S(=O)(=O)[C@H]34)C2)cc1 (some centres unmarked) [Example 5] , give the reported IC50.
Ans: 6.9

---

- Target Entity: β-lactamase Tal 3636 CcrA (Bacteroides fragilis)
- Assay Method Text: biochemical
- Format: biochemical
- Condition Label: TDI: approximately 7 minutes incubation, nitrocefin added last; 0.05M phosphate buffer, pH 7.0; read-out: IC50 TDI PHOSPHATE
Attribute Measured: pIC50
For clarity, pIC50 is expressed as the negative log10 of concentration in mol/L.

Q: pIC50 lookup needed for CCC1=NOC(CC2C(=O)N3C(C(=O)O)C(C)(C)S(=O)(=O)C23)C1 (single isomer, unassigned) , thanks.
Ans: 3.92

Q: Using the record for CC(=O)OC(C1CC(c2ccc(C)cc2)=NO1)[C@@H]1C(=O)N2[C@@H](C(=O)O)C(C)(C)S(=O)(=O)[C@H]12 (stereo partly shown) , report its pIC50.
Ans: 5.49

Q: If you can, please state the reported pIC50 value of CC1(C)[C@H](C(=O)O)N2C(=O)[C@@H](CC3CC(Br)=NO3)[C@H]2S1(=O)=O (single isomer, unassigned) .
Ans: 5.22

Q: May I ask what pIC50 has been recorded for CC1(C)[C@H](C(=O)O)N2C(=O)[C@@H](CC3CC(c4ccsc4)=NO3)[C@H]2S1(=O)=O (single isomer, unassigned) ?
Ans: 5.02

---

- Target Entity: β-lactamase Tal 3636 CcrA (Bacteroides fragilis)
- Assay Method Text: biochemical
- Format: biochemical
- Condition Label: TDI: approximately 7 minutes incubation, nitrocefin added last; 0.010M HEPES, pH 7.4; read-out: IC50 TDI HEPES
Parameter: IC50. Scope: all listed entries.
# value in µM; strip the unit string

CC1(C)[C@H](C(=O)O)N2C(=O)[C@@H](CC3CC(c4ccsc4)=NO3)[C@H]2S1(=O)=O (single isomer, unassigned)
3.5

Q: For CC(=O)OC(C1CC(c2ccc(C)cc2)=NO1)[C@@H]1C(=O)N2[C@@H](C(=O)O)C(C)(C)S(=O)(=O)[C@H]12 (stereo partly shown) , what is its reported IC50?
Ans: 3.9

Q: // lookup IC50 for CC1(C)[C@H](C(=O)O)N2C(=O)[C@@H](CC3CC(Br)=NO3)[C@H]2S1(=O)=O (single isomer, unassigned)
Ans: 2.4

Q: What does the data say about its IC50? Entry: CCC1=NOC(CC2C(=O)N3C(C(=O)O)C(C)(C)S(=O)(=O)C23)C1 (single isomer, unassigned)
Ans: 77
